- assayed_system: Progesterone receptor (Homo sapiens)
- Sequence (P06401 whole entry): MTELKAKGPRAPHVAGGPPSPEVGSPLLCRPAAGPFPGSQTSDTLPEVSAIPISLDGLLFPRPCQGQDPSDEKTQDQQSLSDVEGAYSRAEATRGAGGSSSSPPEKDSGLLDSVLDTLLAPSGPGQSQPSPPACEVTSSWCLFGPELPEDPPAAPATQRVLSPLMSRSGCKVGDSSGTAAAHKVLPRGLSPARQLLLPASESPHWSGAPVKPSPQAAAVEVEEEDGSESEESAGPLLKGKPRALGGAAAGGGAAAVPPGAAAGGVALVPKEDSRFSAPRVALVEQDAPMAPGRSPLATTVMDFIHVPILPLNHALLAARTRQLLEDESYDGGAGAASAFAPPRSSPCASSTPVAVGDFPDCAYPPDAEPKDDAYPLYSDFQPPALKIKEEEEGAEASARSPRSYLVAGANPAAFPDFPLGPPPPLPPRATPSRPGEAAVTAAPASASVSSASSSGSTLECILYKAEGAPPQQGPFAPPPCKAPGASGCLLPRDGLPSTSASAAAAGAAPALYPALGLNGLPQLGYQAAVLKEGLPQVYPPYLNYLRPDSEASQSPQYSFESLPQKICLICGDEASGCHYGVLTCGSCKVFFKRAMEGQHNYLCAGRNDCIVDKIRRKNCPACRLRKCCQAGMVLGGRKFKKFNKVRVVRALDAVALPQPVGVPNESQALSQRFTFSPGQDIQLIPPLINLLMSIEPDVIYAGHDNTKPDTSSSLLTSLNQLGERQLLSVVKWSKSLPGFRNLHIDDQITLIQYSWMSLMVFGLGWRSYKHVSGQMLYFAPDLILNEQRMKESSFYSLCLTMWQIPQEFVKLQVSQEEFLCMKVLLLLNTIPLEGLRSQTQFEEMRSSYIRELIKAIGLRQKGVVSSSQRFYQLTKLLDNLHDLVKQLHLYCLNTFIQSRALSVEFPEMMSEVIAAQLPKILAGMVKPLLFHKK
- experiment_description: Displacement of [3H]progesterone from progesterone receptor
observable: pKi
Keep it numeric: pKi is minus log10 of the concentration in mol/L.

Problem: Item under review: O=c1[nH]c(N2CCC(c3ccccc3)CC2)c(Cc2cccc(Cl)c2)c(=O)[nH]1 . Reported pKi?
Solution: 5.15

====

- assayed_system: Glucocorticoid receptor (Homo sapiens, UniProt P04150)
- Sequence (P04150 whole entry): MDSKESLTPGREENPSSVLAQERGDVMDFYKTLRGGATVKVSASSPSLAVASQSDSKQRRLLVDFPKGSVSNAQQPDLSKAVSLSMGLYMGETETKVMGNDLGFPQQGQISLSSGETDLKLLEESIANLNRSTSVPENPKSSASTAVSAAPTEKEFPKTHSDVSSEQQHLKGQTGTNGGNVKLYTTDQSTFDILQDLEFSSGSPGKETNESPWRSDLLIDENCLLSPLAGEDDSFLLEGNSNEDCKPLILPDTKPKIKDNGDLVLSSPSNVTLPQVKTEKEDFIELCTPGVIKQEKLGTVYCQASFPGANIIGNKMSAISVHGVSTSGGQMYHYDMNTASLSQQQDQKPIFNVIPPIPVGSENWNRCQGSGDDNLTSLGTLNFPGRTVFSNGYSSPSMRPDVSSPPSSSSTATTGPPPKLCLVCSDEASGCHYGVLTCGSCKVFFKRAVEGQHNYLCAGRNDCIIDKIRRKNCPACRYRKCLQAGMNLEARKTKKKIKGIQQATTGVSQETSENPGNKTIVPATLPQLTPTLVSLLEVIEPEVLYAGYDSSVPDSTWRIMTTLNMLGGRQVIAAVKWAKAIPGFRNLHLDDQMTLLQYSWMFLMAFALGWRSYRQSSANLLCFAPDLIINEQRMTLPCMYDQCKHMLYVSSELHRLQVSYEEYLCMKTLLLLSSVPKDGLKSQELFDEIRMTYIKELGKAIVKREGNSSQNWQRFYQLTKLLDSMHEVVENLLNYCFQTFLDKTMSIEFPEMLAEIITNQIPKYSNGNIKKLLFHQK
- experiment_description: Displacement of [3H]dexamethasone from human recombinant GR
Listed compounds paired with reported Ki
Kindly answer with a numeric value in nM, unit omitted.

Here's what some known entries look like.
| chem_smiles | Ki [nM] |
| --- | --- |
| N#Cc1cccc(Cc2c(N3CCC(c4ccccc4)CC3)[nH]c(=O)[nH]c2=O)c1 | 37 |
| O=c1[nH]c(N2CCC(c3ccccc3)CC2)c(Cc2ccccc2Cl)c(=O)[nH]1 | 8.7 |
| O=c1[nH]c(N2CCC(c3ccccc3)CC2)c(Cc2ccc(Cl)cc2)c(=O)[nH]1 | 31 |
| Cn1c(=O)[nH]c(N2CCC(Cc3ccccc3)CC2)c(Cc2ccccc2)c1=O | 24 |

Now look at this one.
Problem: Entry CC(=O)Nc1ccc(C2CCN(c3[nH]c(=O)[nH]c(=O)c3Cc3ccccc3)CC2)cc1 , system Glucocorticoid receptor (Homo sapiens, UniProt P04150): what Ki was measured?
Solution: 46

====

- experiment_description: Cmax in rat at 5 mg/kg, po
- Type: ADME, organism-based
- Design: dose 5 mg/kg, route oral
- condition_set: in vivo
observable: Cmax (ng/mL)
Kindly answer with a numeric value in ng/mL, unit omitted.

Problem: Item under review: O=c1[nH]c(N2CCC(c3ccccc3)CC2)c(Cc2ccccc2)c(=O)[nH]1 . Reported Cmax?
Solution: 143
